System: A549
test-name: Cytotoxicity against human A549 cells after 72 hrs by sulforhodamine B assay
Format: functional
run-conditions: A549, 72 h
Provide the recorded GI50 for the entries that follow.
Value expressed in µM; do not type the unit.

Incoming: # get_value(readout='GI50', item= CSC[C@H]1C(=O)N(C)C[C@@H](NC(=O)c2cnc3ccccc3n2)C(=O)NCC(=O)N(C)[C@H]2CSSC[C@@H](C(=O)N1C)N(C)C(=O)CNC(=O)[C@H](NC(=O)c1cnc3ccccc3n1)CN(C)C(=O)[C@H](CSC)N(C)C2=O )
Outgoing: 0.0713

Incoming: Similarly, CSC[C@H]1C(=O)SC[C@@H](NC(=O)c2nc3ccccc3cc2O)C(=O)NCC(=O)N(C)[C@H]2SSC[C@@H](C(=O)N1C)N(C)C(=O)CNC(=O)[C@H](NC(=O)c1nc3ccccc3cc1O)CSC(=O)[C@H](CSC)N(C)C2=O [THIOCORALINE] ?
Outgoing: 0.00622

# credit: ChEMBL document CHEMBL2396558
